Target: Human CD73 (Homo sapiens, UniProt P21589)
Construct: purchased R&D Systems; host or cells: CHO cells
Sequence (P21589 27-549): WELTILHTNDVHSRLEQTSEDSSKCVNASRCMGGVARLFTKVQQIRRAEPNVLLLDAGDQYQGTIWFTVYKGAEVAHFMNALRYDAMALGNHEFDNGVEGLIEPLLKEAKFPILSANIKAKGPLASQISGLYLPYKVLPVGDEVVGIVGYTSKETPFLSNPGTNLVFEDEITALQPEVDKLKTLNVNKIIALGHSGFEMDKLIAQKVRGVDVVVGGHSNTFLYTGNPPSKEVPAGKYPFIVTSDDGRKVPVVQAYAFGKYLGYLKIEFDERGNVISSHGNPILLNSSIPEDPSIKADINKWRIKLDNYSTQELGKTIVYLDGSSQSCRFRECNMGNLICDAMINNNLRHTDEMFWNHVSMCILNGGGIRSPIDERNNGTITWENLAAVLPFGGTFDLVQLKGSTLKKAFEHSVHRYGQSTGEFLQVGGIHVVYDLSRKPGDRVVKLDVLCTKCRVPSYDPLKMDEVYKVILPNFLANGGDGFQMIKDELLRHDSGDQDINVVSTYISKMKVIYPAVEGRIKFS
Experiment: CD73 Enzyme Assay
Assay type: biochemical
Details: read-out: CD73 Enzyme Assay IC50
pIC50: −log10 of the molar value.
readout kind: pIC50

Please look at this compound and report its pIC50: NS(=O)(=O)c1ccc(CNc2ncnc3c2ncn3[C@@H]2O[C@H](COCP(=O)(O)O)[C@@H](O)[C@H]2O)cc1
< 6.00

Please look at this compound and report its pIC50: O=P(O)(O)CS(=O)(=O)C[C@H]1O[C@@H](n2cnc3c(NCc4ccccc4)ncnc32)[C@H](O)[C@@H]1O
< 6.00

Please look at this compound and report its pIC50: CCOP(=O)(O)COC[C@H]1O[C@@H](n2ccc3c(NC4CCCC4)nc(Cl)nc32)[C@H](O)[C@@H]1O
< 6.00

----------
Target: CD73 on U138 human neuroglioma cells (Homo sapiens, UniProt P21589)
Construct: U138 cells were obtained from ATCC and cultured in DMEM with 10% FBS; host or cells: U138 human neuroglioma cells
Assay: CD73 Cell-Based Assay
Conditions: U138 cells, AMP substrate, 2 hours at 37° C., inorganic phosphate by malachite green
pIC50: −log10 of the molar value.
readout kind: pIC50

Please look at this compound and report its pIC50: C[C@@H](Nc1nc(Cl)nc2c1ccn2[C@@H]1O[C@H](CS(=O)(=O)CP(=O)(O)O)[C@@H](O)[C@H]1O)c1ccc(Cl)cc1
> 8.00

Please look at this compound and report its pIC50: C[C@@H](O)COc1nc(NC2CCCC2)c2ccn([C@@H]3O[C@H](COCP(=O)(O)O)[C@@H](O)[C@H]3O)c2n1
> 8.00

Please look at this compound and report its pIC50: COCC#Cc1nc(NC2CCCC2)c2ccn([C@@H]3O[C@H](COCP(=O)(O)O)[C@@H](O)[C@H]3O)c2n1
> 8.00

Please look at this compound and report its pIC50: C[C@@H](Nc1nc(Cl)nc2c1ccn2[C@@H]1O[C@H](COCP(=O)(O)O)[C@@H](O)[C@H]1O)c1ccccc1
> 8.00

Please look at this compound and report its pIC50: C[C@@H](Nc1nc(C#N)nc2c1ccn2[C@@H]1O[C@H](COCP(=O)(O)O)[C@@H](O)[C@H]1O)c1cccc(F)c1
> 8.00

Please look at this compound and report its pIC50: O=P(O)(O)CS(=O)(=O)C[C@H]1O[C@@H](n2ccc3c(NC4CC5CC5C4)nc(Cl)nc32)[C@H](O)[C@@H]1O (some centres unmarked)
> 8.00

Please look at this compound and report its pIC50: N#Cc1nc(NC2CC3CC3C2)c2cnn([C@@H]3O[C@H](CS(=O)(=O)CP(=O)(O)O)[C@@H](O)[C@H]3O)c2n1 (some centres unmarked)
> 8.00

Please look at this compound and report its pIC50: CC(C)Nc1nc(Cl)nc2c1ncn2[C@@H]1O[C@H](COCP(=O)(O)O)[C@@H](O)[C@H]1O
6.00 to 7.00

Please look at this compound and report its pIC50: C[C@@H](Nc1nc(Cl)nc2c1ccn2[C@@H]1O[C@H](COCP(=O)(O)O)[C@@H](O)[C@H]1O)c1ccc(F)cc1F
> 8.00

Please look at this compound and report its pIC50: CC(C)(C)C#Cc1nc(NC2CCCC2)c2ccn([C@@H]3O[C@H](COCP(=O)(O)O)[C@@H](O)[C@H]3O)c2n1
6.00 to 7.00

Please look at this compound and report its pIC50: O=P(O)(O)COC[C@H]1O[C@@H](n2ccc3c(Oc4ccccc4)nc(Cl)nc32)[C@H](O)[C@@H]1O
< 6.00

Please look at this compound and report its pIC50: C[C@@H](Nc1nc(Cl)nc2c1ccn2[C@@H]1O[C@H](COCP(=O)(O)O)[C@@H](O)[C@H]1O)c1cccc(F)c1
> 8.00

Please look at this compound and report its pIC50: C[C@H](Nc1nc(Cl)nc2c1ccn2[C@@H]1O[C@H](CS(=O)(=O)CP(=O)(O)O)[C@@H](O)[C@H]1O)c1ccc(F)cc1F
> 8.00

Please look at this compound and report its pIC50: O=P(O)(O)COC[C@H]1O[C@@H](n2ccc3c(N4CC5CC5C4)nc(Cl)nc32)[C@H](O)[C@@H]1O (some centres unmarked)
> 8.00

Please look at this compound and report its pIC50: CC[C@@H](Nc1nc(Cl)nc2c1ccn2[C@@H]1O[C@H](COCP(=O)(O)O)[C@@H](O)[C@H]1O)c1ccccc1
7.00 to 8.00

Please look at this compound and report its pIC50: C[C@@H](Nc1nc(Cl)nc2c1ccn2[C@@H]1O[C@H](COCP(=O)(O)O)[C@@H](O)[C@H]1O)c1ccc(C#N)cc1
> 8.00

Please look at this compound and report its pIC50: C[C@H](O)C#Cc1nc(NC2CCCC2)c2ccn([C@@H]3O[C@H](COCP(=O)(O)O)[C@@H](O)[C@H]3O)c2n1
> 8.00

Please look at this compound and report its pIC50: C[C@H](Nc1nc(C#N)nc2c1ccn2[C@@H]1O[C@H](COCP(=O)(O)O)[C@@H](O)[C@H]1O)c1ccc(C(F)(F)F)cc1
> 8.00

Please look at this compound and report its pIC50: CC(C)[C@H](Nc1nc(Cl)nc2c1ccn2[C@@H]1O[C@H](COCP(=O)(O)O)[C@@H](O)[C@H]1O)c1ccccc1
> 8.00

Please look at this compound and report its pIC50: O=P(O)(O)CS(=O)(=O)C[C@H]1O[C@@H](n2ccc3c(NC4CCCC4)nc(Cl)nc32)[C@H](O)[C@@H]1O
> 8.00

Please look at this compound and report its pIC50: C[C@H](Nc1nc(Cl)nc2c1ncn2[C@@H]1O[C@H](COCP(=O)(O)O)[C@@H](O)[C@H]1O)c1ccccc1
7.00 to 8.00

Please look at this compound and report its pIC50: O=P(O)(O)COC[C@H]1O[C@@H](n2ccc3c(NC4CCCC4)nc(Cl)nc32)[C@H](O)[C@@H]1O
> 8.00

Please look at this compound and report its pIC50: O=P(O)(O)CS(=O)(=O)C[C@H]1O[C@@H](n2ccc3c(NC4CCC(F)(F)C4)nc(Cl)nc32)[C@H](O)[C@@H]1O (some centres unmarked)
> 8.00

Please look at this compound and report its pIC50: CC(C)Nc1nc(Cl)nc2c1ccn2[C@@H]1O[C@H](CS(=O)(=O)CP(=O)(O)O)[C@@H](O)[C@H]1O
7.00 to 8.00

Please look at this compound and report its pIC50: CC(O)COc1nc(NC2CCCC2)c2ccn([C@@H]3O[C@H](COCP(=O)(O)O)[C@@H](O)[C@H]3O)c2n1 (some centres unmarked)
> 8.00

Please look at this compound and report its pIC50: C[C@H](Nc1nc(Cl)nc2c1ccn2[C@@H]1O[C@H](COCP(=O)(O)O)[C@@H](O)[C@H]1O)c1ccccc1F
7.00 to 8.00

Source: patent US11591355B2
